Measured values drawn from the RNAGym collection of RNA variant scans (doi:10.7554/elife.80360) for this set.

Below is a list of entries, each paired with its recorded self-cleavage value.
B1: CPEB3 Ribozyme (parent)
chain: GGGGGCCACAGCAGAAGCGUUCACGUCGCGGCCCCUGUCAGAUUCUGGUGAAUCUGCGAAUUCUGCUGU

Variants of: B1
assay_overview: self-cleavage, relative activity (ratio to wild type); higher = more cleavage; co-transcriptional

Worked examples follow.
>  <variant_annotation>
C57A U62C

>  <reading>
0.339

$$$$
>  <variant_annotation>
G48C U49A

>  <reading>
0.976

$$$$
>  <variant_annotation>
C39G G56U

>  <reading>
1

$$$$
>  <variant_annotation>
G1U A59G

>  <reading>
0.148

$$$$
>  <variant_annotation>
C6A A16G

>  <reading>
0.418

$$$$
>  <variant_annotation>
C24A U36G

>  <reading>
0.205

$$$$
>  <variant_annotation>
G47A C54A

>  <reading>
0.961

$$$$
>  <variant_annotation>
G14U A42C

>  <reading>
0.523

$$$$
>  <variant_annotation>
C6G U67C

>  <reading>
0.344

$$$$
>  <variant_annotation>
C39A U43C

>  <reading>
0.517

$$$$

*Q* For the variant shown here, A23G U61C , give the reported self-cleavage.
*A* 0.614

*Q* For the variant shown here, A52U U53A , give the reported self-cleavage.
*A* 0.981

*Q* For the variant shown here, G2C G68A , give the reported self-cleavage.
*A* 0.11

*Q* For the variant shown here, A8G C12U , give the reported self-cleavage.
*A* 0.444

*Q* For the variant shown here, C32U C63A , give the reported self-cleavage.
*A* 0.886

*Q* For the variant shown here, A23U U49G , give the reported self-cleavage.
*A* 0.936

*Q* For the variant shown here, A40C G48U , give the reported self-cleavage.
*A* 0.884

*Q* For the variant shown here, C45G C63U , give the reported self-cleavage.
*A* 0.964

*Q* For the variant shown here, C45G U62G , give the reported self-cleavage.
*A* 0.81

*Q* For the variant shown here, C18A C33U , give the reported self-cleavage.
*A* 0.251

*Q* For the variant shown here, G5U A52G , give the reported self-cleavage.
*A* 0.266

*Q* For the variant shown here, G56C U64C , give the reported self-cleavage.
*A* 0.637

*Q* For the variant shown here, C24A U69G , give the reported self-cleavage.
*A* 0.866

*Q* For the variant shown here, A13C C54A , give the reported self-cleavage.
*A* 0.414

*Q* For the variant shown here, G25C A42U , give the reported self-cleavage.
*A* 0.203

*Q* For the variant shown here, A23G C27U , give the reported self-cleavage.
*A* 0.222

*Q* For the variant shown here, G11C G14A , give the reported self-cleavage.
*A* 0.0859
